# target: Chorismate synthase (Streptococcus pneumoniae serotype 4 (strain ATCC BAA-334 / TIGR4), UniProt P0A2Y6)
# Sequence (P0A2Y6 whole entry): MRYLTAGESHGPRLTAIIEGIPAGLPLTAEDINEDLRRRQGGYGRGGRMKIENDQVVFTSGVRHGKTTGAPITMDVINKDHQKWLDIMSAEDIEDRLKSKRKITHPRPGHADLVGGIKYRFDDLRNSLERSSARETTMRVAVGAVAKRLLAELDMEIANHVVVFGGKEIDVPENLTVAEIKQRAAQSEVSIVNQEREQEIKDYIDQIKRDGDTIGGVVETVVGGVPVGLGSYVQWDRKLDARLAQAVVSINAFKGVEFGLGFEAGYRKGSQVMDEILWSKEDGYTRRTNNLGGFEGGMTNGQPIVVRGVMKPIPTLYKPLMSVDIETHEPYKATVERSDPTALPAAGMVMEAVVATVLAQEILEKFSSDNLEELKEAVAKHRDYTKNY
# test summary: Inhibitory concentration against Streptococcus pneumoniae chorismate synthase
pIC50: −log10 of the molar value.
Measured pIC50 accompanies every entry in the list below.
measured quantity: pIC50

{"structure smiles string": "O=C1/C(=C\\c2ccccc2Cl)Oc2c1ccc(O)c2O", "sign": "=", "result value": 5.28}
{"structure smiles string": "CC(C)Oc1ccc(/C=C2/Oc3c(ccc(O)c3O)C2=O)c(O)c1", "sign": "=", "result value": 6.00}
{"structure smiles string": "Cc1ccccc1/C=C1/Oc2c(ccc(O)c2O)C1=O", "sign": "=", "result value": 5.40}
{"structure smiles string": "O=C(O)CCCOc1ccc(/C=C2/Oc3c(ccc(O)c3O)C2=O)c(O)c1", "sign": "=", "result value": 5.96}
{"structure smiles string": "O=C1/C(=C\\c2ccc(F)cc2)Oc2c1ccc(O)c2O", "sign": "<", "result value": 4.22}
{"structure smiles string": "COc1ccccc1/C=C1/Oc2c(ccc(O)c2O)C1=O", "sign": "<", "result value": 4.22}
{"structure smiles string": "O=C1/C(=C\\c2ccccc2[N+](=O)[O-])Oc2c1ccc(O)c2O", "sign": "=", "result value": 5.70}
{"structure smiles string": "O=C1/C(=C\\c2ccc(-n3ccnc3)cc2)Oc2c1ccc(O)c2O", "sign": "=", "result value": 5.29}
{"structure smiles string": "N#CCCCOc1ccc(/C=C2/Oc3c(ccc(O)c3O)C2=O)c(O)c1", "sign": "=", "result value": 5.96}
{"structure smiles string": "COc1ccc(/C=C2/Oc3c(ccc(O)c3O)C2=O)c(O)c1", "sign": "=", "result value": 6.15}
{"structure smiles string": "O=C1/C(=C\\c2ccccc2O)Oc2c1ccc(O)c2O", "sign": "=", "result value": 6.10}
{"structure smiles string": "CCOC(=O)COc1ccc(/C=C2/Oc3c(ccc(O)c3O)C2=O)c(O)c1", "sign": "=", "result value": 4.99}
{"structure smiles string": "CCCOc1ccc(/C=C2/Oc3c(ccc(O)c3O)C2=O)c(O)c1", "sign": "=", "result value": 6.29}
{"structure smiles string": "CCCCCOc1ccc(/C=C2/Oc3c(ccc(O)c3O)C2=O)c(O)c1", "sign": "=", "result value": 6.66}
{"structure smiles string": "COc1cccc(/C=C2/Oc3c(ccc(O)c3O)C2=O)c1O", "sign": "=", "result value": 5.77}
{"structure smiles string": "O=C1/C(=C\\c2ccc(C(F)(F)F)cc2)Oc2c1ccc(O)c2O", "sign": "=", "result value": 5.15}
{"structure smiles string": "CN(C)c1ccc(/C=C2/Oc3c(ccc(O)c3O)C2=O)cc1", "sign": "=", "result value": 4.59}

----------
# test summary: Non-competitive inhibitory activity with respect to cofactor FMN
pKi: −log10 of the molar value.

{"structure smiles string": "CCN(CC)c1ccc(/C=C2/Oc3c(ccc(O)c3O)C2=O)cc1", "pKi": 5.77}

----------
# target: Chorismate synthase (Streptococcus pneumoniae serotype 4 (strain ATCC BAA-334 / TIGR4), UniProt P0A2Y6)
# test summary: Inhibitory concentration against Streptococcus pneumoniae chorismate synthase
Rule: IC50 below 5 µM gives Yes, anything at or above gives No.

{"structure smiles string": "CCN(CCO)c1ccc(/C=C2/Oc3c(ccc(O)c3O)C2=O)c(C)c1", "answer label": "Yes"}
{"structure smiles string": "CCOc1ccc(/C=C2/Oc3c(ccc(O)c3O)C2=O)cc1", "answer label": "No"}
{"structure smiles string": "O=C(O)c1ccc(/C=C2/Oc3c(ccc(O)c3O)C2=O)cc1", "answer label": "No"}
{"structure smiles string": "O=C1/C(=C\\c2ccc(OCCCO)cc2O)Oc2c1ccc(O)c2O", "answer label": "Yes"}
{"structure smiles string": "CCCCCCOc1ccc(/C=C2/Oc3c(ccc(O)c3O)C2=O)c(O)c1", "answer label": "Yes"}
{"structure smiles string": "O=C(O)c1ccccc1/C=C1/Oc2c(ccc(O)c2O)C1=O", "answer label": "No"}
{"structure smiles string": "O=C1/C(=C\\c2ccc([N+](=O)[O-])cc2)Oc2c1ccc(O)c2O", "answer label": "Yes"}
{"structure smiles string": "O=C(O)COc1ccc(/C=C2/Oc3c(ccc(O)c3O)C2=O)c(O)c1", "answer label": "Yes"}
{"structure smiles string": "CCCCOc1ccc(/C=C2/Oc3c(ccc(O)c3O)C2=O)c(O)c1", "answer label": "Yes"}
{"structure smiles string": "O=C1/C(=C\\c2ccccc2C(F)(F)F)Oc2c1ccc(O)c2O", "answer label": "No"}
{"structure smiles string": "COc1ccc(/C=C2/Oc3c(ccc(O)c3O)C2=O)cc1", "answer label": "No"}
{"structure smiles string": "O=C1/C(=C\\c2ccc(N3CCCC3)cc2)Oc2c1ccc(O)c2O", "answer label": "No"}
{"structure smiles string": "O=C1/C(=C\\c2ccc(N3CCOCC3)cc2)Oc2c1ccc(O)c2O", "answer label": "No"}
{"structure smiles string": "O=C1/C(=C\\c2ccccc2)Oc2c1ccc(O)c2O", "answer label": "Yes"}
{"structure smiles string": "O=C1/C(=C\\c2ccc(O)cc2)Oc2c1ccc(O)c2O", "answer label": "No"}
{"structure smiles string": "CC(C)COc1ccc(/C=C2/Oc3c(ccc(O)c3O)C2=O)c(O)c1", "answer label": "Yes"}
{"structure smiles string": "O=C1/C(=C\\c2ccc(OCc3ccccc3)cc2O)Oc2c1ccc(O)c2O", "answer label": "Yes"}
{"structure smiles string": "O=C(O)COc1ccccc1/C=C1/Oc2c(ccc(O)c2O)C1=O", "answer label": "Yes"}
{"structure smiles string": "O=C1/C(=C\\c2ccc(OCCCCCCO)cc2O)Oc2c1ccc(O)c2O", "answer label": "Yes"}
{"structure smiles string": "CCCCOc1ccc(/C=C2/Oc3c(ccc(O)c3O)C2=O)cc1", "answer label": "Yes"}
{"structure smiles string": "O=C1/C(=C\\c2ccc(OCCCCO)cc2O)Oc2c1ccc(O)c2O", "answer label": "Yes"}
{"structure smiles string": "CCOC(=O)CCCOc1ccc(/C=C2/Oc3c(ccc(O)c3O)C2=O)c(O)c1", "answer label": "Yes"}
